biological target: Nuclear receptor subfamily 1 group I member 3 (Homo sapiens); experiment: qHTS assay to identify small molecule agonists of the constitutive androstane receptor (CAR) signaling pathway (AID 1224839); settings: HepG2 hCAR CYP2B6-luciferase, agonist mode, 24 h; series mostly up to 92.4 µM; also: nearly all actives have a fitted effect of over 15% in size;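 as to activation: HepG2 cells stably carrying human CAR and a CYP2B6 luciferase reporter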
Results filed as inconclusive are left out. Activity calls are given as the source filed them. Calls follow the shape of the dose curve; as a rule, active = well fitted activation curve with a large enough effect in the repeat runs; inconclusive = weak or mixed curves; inactive = no such curve, though single readings can be large or run the other way.
Select the matching outcome among yes (1) for active, no (0) for inactive

                        smiles_string  assigned_label
0  Nc1ccc(Oc2cccc(Oc3ccc(N)cc3)c2)cc1          no (0)
1                 O=C1CCCCCCCCCCCCCC1         yes (1)

Prompt: Tell me the recorded outcome of this test for `CCOc1nc(F)cc2nc(S(=O)(=O)Nc3c(Cl)cccc3C(=O)OC)nn12` .
Response: no (0)

Prompt: Tell me the recorded outcome of this test for `CN1CC[C@H](c2c(O)cc(O)c3c(=O)cc(-c4ccccc4Cl)oc23)[C@H](O)C1` .
Response: no (0)

Prompt: Tell me the recorded outcome of this test for `C=COCCCC` .
Response: no (0)

Prompt: Tell me the recorded outcome of this test for `O=S(=O)(c1ccc(OCc2ccccc2)cc1)c1ccccc1O` .
Response: no (0)

Prompt: Tell me the recorded outcome of this test for `Cc1cc(Br)ccc1NC(=O)CCl` .
Response: no (0)

Prompt: Tell me the recorded outcome of this test for `NCc1cccc(C2CCN(C(=O)c3ccc(C#Cc4ccccc4F)o3)CC2)c1` .
Response: no (0)

Prompt: Tell me the recorded outcome of this test for `Oc1cccc2c(O)cccc12` .
Response: yes (1)
